Property: pKd; scope: individual binders
target: CDK2:Cyclin E1 (CCNE1) complex (UniProt P24864 81-363); experiment: SPR, ligand CDK2 (pT160) : CCNE1
Bridge positions count the residues as written; N and C are the ends.
Scale note: pKd = -log10(concentration in M).

[
  {
    "BINDER": "Ac-DPAWWVCAIAAIECSDV-NH2 (bridge 7-14; not fully specified (bridges), Cluster C51) [FP19711]",
    "pKd": 5.77
  }
]

Next, consider the following binder.
May I ask what pKd has been recorded for Ac-WWVCAIAAIECSD-NH2 (bridge 4-11; also: Cys staple linker not named, also called truncated version of FP19711) [FP33215] ?
6.57
